# assay.overview: Pharmacokinetic analyses in mouse
# Type: in vivo
# condition.details: mouse, plasma, iv, 5 mg/kg, mouse, 5 mg/kg i.v., 1 h, individual animals; read-out: Plasma concentration
measure: concentration at 1 h
# number then unit; no other words

Documented concentration at 1 h of Cc1ncsc1-c1ccc(C(CCC(C)CCN2CCC(c3ccc4c(c3)n(C3CCCC3)c3nc(=O)c5c(Br)cccc5n43)CC2)NC(=O)C2CC(O)CN2C(=O)C(NC(=O)C2(F)CC2)C(C)(C)C)cc1 (centres unmarked) [ACBI2] : 5.13 µM

Continue with the molecule presented below.
// field: concentration at 1 h; key: Cc1ncsc1-c1ccc([C@H](CCCCCN2CCC(c3ccc4c(c3)n(C3CCCC3)c3nc(=O)c5c(Br)cccc5n43)CC2)NC(=O)[C@@H]2C[C@@H](O)CN2C(=O)[C@@H](NC(=O)C2(F)CC2)C(C)(C)C)cc1 [compound 11] ; value = 5.35 µM

----------
Below is a list of entries, each paired with its recorded DC50 value.
# target.or.system: SMARCA2 (Homo sapiens)
# Sequence (P51531 whole entry): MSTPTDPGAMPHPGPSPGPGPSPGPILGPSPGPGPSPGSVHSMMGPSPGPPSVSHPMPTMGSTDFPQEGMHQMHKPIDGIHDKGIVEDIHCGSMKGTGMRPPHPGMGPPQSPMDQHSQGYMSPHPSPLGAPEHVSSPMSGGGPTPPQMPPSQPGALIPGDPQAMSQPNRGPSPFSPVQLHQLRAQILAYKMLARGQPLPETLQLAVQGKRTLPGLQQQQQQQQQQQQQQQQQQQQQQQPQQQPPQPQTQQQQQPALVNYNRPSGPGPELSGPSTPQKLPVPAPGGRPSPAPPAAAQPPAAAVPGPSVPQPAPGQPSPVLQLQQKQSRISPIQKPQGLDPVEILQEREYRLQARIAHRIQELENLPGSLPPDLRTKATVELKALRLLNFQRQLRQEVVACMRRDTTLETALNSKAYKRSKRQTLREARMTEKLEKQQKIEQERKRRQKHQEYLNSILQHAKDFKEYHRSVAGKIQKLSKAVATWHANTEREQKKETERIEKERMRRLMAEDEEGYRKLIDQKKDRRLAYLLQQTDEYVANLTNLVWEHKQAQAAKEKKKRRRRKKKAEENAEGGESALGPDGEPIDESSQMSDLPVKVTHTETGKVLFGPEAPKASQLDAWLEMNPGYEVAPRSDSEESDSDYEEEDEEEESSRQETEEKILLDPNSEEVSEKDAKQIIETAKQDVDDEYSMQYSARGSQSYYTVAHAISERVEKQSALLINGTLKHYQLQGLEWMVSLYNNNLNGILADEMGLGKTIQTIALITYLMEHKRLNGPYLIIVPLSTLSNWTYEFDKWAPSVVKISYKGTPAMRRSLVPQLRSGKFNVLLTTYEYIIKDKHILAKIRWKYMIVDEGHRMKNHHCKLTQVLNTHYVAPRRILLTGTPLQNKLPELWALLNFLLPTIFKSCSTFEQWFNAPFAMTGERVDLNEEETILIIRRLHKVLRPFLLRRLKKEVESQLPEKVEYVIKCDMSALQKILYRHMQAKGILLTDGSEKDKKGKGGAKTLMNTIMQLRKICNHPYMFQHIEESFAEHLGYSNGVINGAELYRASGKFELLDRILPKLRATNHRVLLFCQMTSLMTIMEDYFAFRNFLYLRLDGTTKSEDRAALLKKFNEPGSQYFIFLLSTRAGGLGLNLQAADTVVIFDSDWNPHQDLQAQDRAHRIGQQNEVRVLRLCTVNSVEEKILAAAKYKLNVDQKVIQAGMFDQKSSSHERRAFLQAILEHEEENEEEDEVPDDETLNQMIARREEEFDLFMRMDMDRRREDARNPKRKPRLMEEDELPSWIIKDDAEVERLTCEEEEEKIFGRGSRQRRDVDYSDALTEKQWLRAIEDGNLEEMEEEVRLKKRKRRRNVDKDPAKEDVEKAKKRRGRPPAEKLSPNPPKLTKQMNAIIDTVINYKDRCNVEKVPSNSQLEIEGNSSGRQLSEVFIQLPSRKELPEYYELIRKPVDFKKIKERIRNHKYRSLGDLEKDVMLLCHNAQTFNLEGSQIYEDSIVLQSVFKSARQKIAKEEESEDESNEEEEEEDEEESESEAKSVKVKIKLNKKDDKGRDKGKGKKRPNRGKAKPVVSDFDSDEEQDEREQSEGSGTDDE
# assay.overview: SMARCA2 capillary electrophoresis protein assay in RKO cells
# Format: cell-based
# Parameters: endogenous in cells; host or cells: RKO, NCI-H1568, A549, HCT116, LU99, HCC-364, HCT-15, HCC4006, SK-N-AS
# condition.details: RKO (18 h); mean ± SD
The answer is to be given in nM; state only the numeric part.

A selection of reference data follows.
Looking up `Cc1ncsc1-c1ccc(CNC(=O)[C@@H]2C[C@@H](O)CN2C(=O)[C@@H](NC(=O)C2(F)CC2)C(C)(C)C)c(OCCCCN2CCC(c3ccc4c(c3)n(C3CCCC3)c3nc(=O)c5c(Br)cccc5n43)CC2)c1` , I found its DC50 recorded as 39

Sample `Cc1ncsc1-c1ccc([C@H](COCCCN2CCC(c3ccc4c(c3)n(C3CCCC3)c3nc(=O)c5c(Br)cccc5n43)CC2)NC(=O)[C@@H]2C[C@@H](O)CN2C(=O)[C@@H](NC(=O)C2(F)CC2)C(C)(C)C)cc1` ; DC50 observed: 2

New cases:
Measured DC50, `Cc1ncsc1-c1ccc([C@H](COC(C)(C)CN2CCC(c3ccc4c(c3)n(C3CCCC3)c3nc(=O)c5c(Br)cccc5n43)CC2)NC(=O)[C@@H]2C[C@@H](O)CN2C(=O)[C@@H](NC(=O)C2(F)CC2)C(C)(C)C)cc1` : 5

Entry under test: `Cc1ncsc1-c1ccc(CNC(=O)[C@@H]2C[C@@H](O)CN2C(=O)[C@@H](NC(=O)C2(F)CC2)C(C)(C)C)c(OCCOCCOCCN2CCC(c3ccc4c(c3)n(C3CCCC3)c3nc(=O)c5c(Br)cccc5n43)CC2)c1` . Its DC50 was 106

Reported DC50 ( `Cc1ncsc1-c1ccc([C@H](CCC(C)(C)CCN2CCC(c3ccc4c(c3)n(C3CCCC3)c3nc(=O)c5c(Br)cccc5n43)CC2)NC(=O)[C@@H]2C[C@@H](O)CN2C(=O)[C@@H](NC(=O)C2(F)CC2)C(C)(C)C)cc1` ) = 3

Noted for `Cc1ncsc1-c1ccc(CNC(=O)[C@@H]2C[C@@H](O)CN2C(=O)[C@@H](NC(=O)C2(F)CC2)C(C)(C)C)c(OCCOCCOCCOCCN2CCC(c3ccc4c(c3)n(C3CCCC3)c3nc(=O)c5c(Br)cccc5n43)CC2)c1` : its DC50 reads 148

Measured DC50, `Cc1ncsc1-c1ccc([C@H](CC[C@@H](C)CCN2CCC(c3ccc4c(c3)n(C3CCCC3)c3nc(=O)c5c(Br)cccc5n43)CC2)NC(=O)[C@@H]2C[C@@H](O)CN2C(=O)[C@@H](NC(=O)C2(F)CC2)C(C)(C)C)cc1` : 1

Record `Cc1ncsc1-c1ccc([C@H](CCCCCN2CCC(c3ccc4c(c3)n(C3CCCC3)c3nc(=O)c5c(Br)cccc5n43)CC2)NC(=O)[C@@H]2C[C@@H](O)CN2C(=O)[C@@H](NC(=O)C2(F)CC2)C(C)(C)C)cc1` , field DC50: 1

----------
# target.or.system: (Homo sapiens, UniProt P51532)
# Construct: P51532, residues 1448–1569 with additional N-terminal SM residues; GST (TEV site) (N); His6 (TEV site) (N, cleaved yes); made in house; host or cells: SMARCA4^BD: Escherichia coli BL21(DE3)
# Sequence (P51532 1448-1569): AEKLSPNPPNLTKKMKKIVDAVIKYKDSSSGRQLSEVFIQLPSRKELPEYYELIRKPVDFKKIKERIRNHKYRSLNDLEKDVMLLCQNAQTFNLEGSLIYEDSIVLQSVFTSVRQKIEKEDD
# assay.overview: TR-FRET ternary complex affinity and cooperativity, SMARCA4
# Assay type: binding
# condition.details: TR-FRET competition for SMARCA4BD, without VCB; mean ± SD; read-out: TR-FRET SMARCA4BD EC50
Measured pEC50 values are reported for all entries that follow.
In simple prose, pEC50 is minus the logarithm base ten of a concentration in moles per litre.

The value of pEC50 measured for the compound Cc1ncsc1-c1ccc([C@H](COCCCN2CCC(c3ccc4c(c3)n(C3CCCC3)c3nc(=O)c5c(Br)cccc5n43)CC2)NC(=O)[C@@H]2C[C@@H](O)CN2C(=O)[C@@H](NC(=O)C2(F)CC2)C(C)(C)C)cc1 [compound 27] turned out to be 6.71

Recorded result, Cc1ncsc1-c1ccc([C@H](COC(C)CN2CCC(c3ccc4c(c3)n(C3CCCC3)c3nc(=O)c5c(Br)cccc5n43)CC2)NC(=O)[C@@H]2C[C@@H](O)CN2C(=O)[C@@H](NC(=O)C2(N(C)C)CC2)C(C)(C)C)cc1 (stereo partly shown) [compound 10] , pEC50: 6.72

Measured pEC50 of Cc1ncsc1-c1ccc(CNC(=O)[C@@H]2C[C@H](O)CN2C(=O)[C@@H](NC(=O)C2(F)CC2)C(C)(C)C)c(OCCN2CCC(c3ccc4c(c3)n(C3CCCC3)c3nc(=O)c5c(Br)cccc5n43)CC2)c1 [compound 19] : 6.80

Notebook: Cc1ncsc1-c1ccc([C@H](COCCN2CCC(c3ccc4c(c3)n(C3CCCC3)c3nc(=O)c5c(Br)cccc5n43)CC2)NC(=O)[C@@H]2C[C@@H](O)CN2C(=O)[C@@H](NC(=O)C2(N(C)C)CC2)C(C)(C)C)cc1 [compound 26] , pEC50 read as 6.83

Sample Cc1ncsc1-c1ccc(C(CCC(C)CCN2CCC(c3ccc4c(c3)n(C3CCCC3)c3nc(=O)c5c(Br)cccc5n43)CC2)NC(=O)C2CC(O)CN2C(=O)C(NC(=O)C2(F)CC2)C(C)(C)C)cc1 (stereo not shown) [ACBI2] ; pEC50 observed: 6.50

The recorded pEC50 for entry Cc1ncsc1-c1ccc(CNC(=O)[C@@H]2C[C@@H](O)CN2C(=O)[C@@H](NC(=O)C2(F)CC2)C(C)(C)C)c(OCCN2CCC(c3ccc4c(c3)n(C3CCCC3)c3nc(=O)c5c(Br)cccc5n43)CC2)c1 [compound 20] equals 6.92

Kindly note the recorded pEC50 for Cc1ncsc1-c1ccc([C@H](CC[C@@H](C)CCN2CCC(c3ccc4c(c3)n(C3CCCC3)c3nc(=O)c5c(Br)cccc5n43)CC2)NC(=O)[C@@H]2C[C@@H](O)CN2C(=O)[C@@H](NC(=O)C2(F)CC2)C(C)(C)C)cc1 [compound 29] , which is 6.38

Entry Cc1ncsc1-c1ccc(CNC(=O)[C@@H]2C[C@@H](O)CN2C(=O)[C@@H](NC(=O)C2(F)CC2)C(C)(C)C)c(OCCCCN2CCC(c3ccc4c(c3)n(C3CCCC3)c3nc(=O)c5c(Br)cccc5n43)CC2)c1 [compound 23] — recorded pEC50 = 6.76

Entry Cc1ncsc1-c1ccc([C@H](CCCCN2CCC(c3ccc4c(c3)n(C3CCCC3)c3nc(=O)c5c(Br)cccc5n43)CC2)NC(=O)[C@@H]2C[C@@H](O)CN2C(=O)[C@@H](NC(=O)C2(F)CC2)C(C)(C)C)cc1 [compound 25] — recorded pEC50 = 6.74

Per the record, O=c1nc2n(C3CCCC3)c3ccccc3n2c2cccc(Br)c12 [compound 1] has pEC50 of 6.07

----------
Reported concentration at 24 h by item:
# assay.overview: Pharmacokinetic analyses in mouse
# Assay type: in vivo
# condition.details: mouse, plasma, iv, 5 mg/kg, mouse, 5 mg/kg i.v., 24 h, individual animals; read-out: Plasma concentration
# Protocol: Compound concentrations in plasma aliquots were measured by quantitative HPLC-MS/MS using an internal standard. Calibration and quality control samples were prepared using blank plasma from untreated animals. Samples were precipitated with acetonitrile and injected into a HPLC system (Agilent 1200). […] Chromatograms were analyzed with Analyst (SCIEX) and pharmacokinetic parameters were calculated by non-compartmental analysis using BI-proprietary software.
Just so you know, I need the unit written after the number.

Reported concentration at 24 h ( `Cc1ncsc1-c1ccc([C@H](CCCCCN2CCC(c3ccc4c(c3)n(C3CCCC3)c3nc(=O)c5c(Br)cccc5n43)CC2)NC(=O)[C@@H]2C[C@@H](O)CN2C(=O)[C@@H](NC(=O)C2(F)CC2)C(C)(C)C)cc1` ) = 37.6 nM

***
The measured concentration at 24 h associated with Cc1ncsc1-c1ccc(C(CCC(C)CCN2CCC(c3ccc4c(c3)n(C3CCCC3)c3nc(=O)c5c(Br)cccc5n43)CC2)NC(=O)C2CC(O)CN2C(=O)C(NC(=O)C2(F)CC2)C(C)(C)C)cc1 (centres unmarked) reads 94.9 nM

From: paper PMC9551036
